Values were extracted from patent US9682995B2.

test system: HeLa; assay: Proliferation assay (crystal violet), HeLa; assay type: cell-based; details: Homo sapiens, 96 h, 4 days, read-out: Inhibition of proliferation IC50 HeLa
IC50 vs 2000 nM: less than gives criterion met; not less than gives criterion not met.

Would you please look over these solved cases?
| INPUT_SMILES | TEST_SYSTEM | LABEL_CLASS |
| --- | --- | --- |
| Cc1nsc(Nc2cncc(-n3cccn3)n2)c1C(=O)Nc1ccc(F)c(F)c1 | HeLa | criterion met |
| COc1ccc(NC(=O)c2c(C)nsc2Nc2cncc(C(F)(F)F)n2)cn1 | HeLa | criterion met |
| COc1ccc(NC(=O)c2c(C)nsc2Nc2cnc3cc(Cl)ccc3n2)cn1 | HeLa | criterion met |
| Cc1nsc(Nc2nc3c(C(F)(F)F)ccnc3s2)c1C(=O)Nc1ccc(Cl)c(F)c1 | HeLa | criterion not met |
| COC(=O)c1cncc(Nc2snc(C)c2C(=O)Nc2ccc(F)c(F)c2)n1 | HeLa | criterion not met |
| COc1ccc(NC(=O)c2c(C)nsc2Nc2nc3c(C(F)(F)F)cccc3s2)cn1 | HeLa | criterion met |

Incoming: Say whether its IC50 is strictly beneath 2000 nM. Entry: COc1ccc(NC(=O)c2c(C)nsc2Nc2ncc(C(=O)N3CCOCC3)s2)cc1F
Outgoing: criterion not met

Incoming: Now give it for Cc1nsc(Nc2cncc(-c3ncco3)n2)c1C(=O)Nc1ccc(Cl)c(F)c1 too.
Outgoing: criterion not met

====

test system: spindle assembly checkpoint; assay: SAC-Formation - Nocodazole-Induced Assay; format: cell-based; conditions: Homo sapiens; HeLa cells, nocodazole 0.1 μg/ml, 24 h, phosphorylated histone H3 on serine 10
PROPERTY: IC50 (nM)
Quick note: give the figure in nM, leave out the unit.

Past entries and their recorded results:
| MOLECULE | TEST_SYSTEM | PROPERTY | UOM | TEST_VALUE |
| --- | --- | --- | --- | --- |
| COc1ncc(NC(=O)c2c(C)nsc2Nc2cnc3ccccc3n2)cc1C [Example 121] | spindle assembly checkpoint | IC50 | nM | 130 |
| CNC(=O)c1ccnc(Nc2snc(C)c2C(=O)Nc2ccc(F)c(F)c2)c1 [Example 108] | spindle assembly checkpoint | IC50 | nM | 1800 |
| COc1ccc(NC(=O)c2c(C)nsc2Nc2ncc(C(=O)O)s2)cn1 [Example 126] | spindle assembly checkpoint | IC50 | nM | 19000 |
| Cc1nsc(Nc2cc(C#N)ccn2)c1C(=O)Nc1ccc(F)c(F)c1 [Example 27] | spindle assembly checkpoint | IC50 | nM | 110 |
| Cc1nsc(Nc2ccc(C#N)cn2)c1C(=O)Nc1ccc(F)c(F)c1 [Example 28] | spindle assembly checkpoint | IC50 | nM | 41 |
| COC(=O)c1cncc(Nc2snc(C)c2C(=O)Nc2ccc(F)c(F)c2)n1 [Example 66] | spindle assembly checkpoint | IC50 | nM | 37 |

Incoming: Need IC50 of CCc1ccccc1NC(=O)c1c(C)nsc1Nc1ccccn1 [Example 142] , thanks.
Outgoing: 14000

Incoming: Now give it for CCc1ccnc(Nc2snc(C)c2C(=O)Nc2ccccc2CC)n1 [Example 17] too.
Outgoing: 6000

====

Items are presented alongside their recorded IC50.
tested on: HeLa; assay: Proliferation assay (crystal violet), HeLa; type: cell-based; conditions: Homo sapiens, 96 h, 4 days, read-out: Inhibition of proliferation IC50 HeLa
Quick note: give the figure in µM, leave out the unit.

| INPUT_SMILES | TEST_SYSTEM | IC50 [µM] |
| --- | --- | --- |
| CCc1ccccc1NC(=O)c1c(C)nsc1Nc1ccc(C#N)cn1 | HeLa | 3 |
| COc1ccc(NC(=O)c2c(C)nsc2Nc2ncccc2C#N)cn1 | HeLa | 9.9 |
| COc1ccc(NC(=O)c2c(C)nsc2Nc2cnc3cc(C(F)(F)F)ccc3n2)cn1 | HeLa | 0.34 |
| Cc1nsc(Nc2nc3c(C(F)(F)F)cccc3s2)c1C(=O)Nc1ccc(Cl)c(Cl)c1 | HeLa | 7.3 |

Incoming: Need IC50 of COc1ccc(NC(=O)c2c(C)nsc2Nc2ccc(C#N)cn2)cn1 , thanks.
Outgoing: 6.7

Incoming: Now give it for COC(=O)c1cnc(Nc2snc(C)c2C(=O)Nc2ccc(F)c(F)c2)cn1 too.
Outgoing: 0.99

Incoming: Now give it for Cc1nsc(Nc2cc(C#N)ccn2)c1C(=O)Nc1ccc(Oc2ccc(F)cc2F)nc1 too.
Outgoing: 1.1

Incoming: Now give it for Cc1nsc(Nc2cnc(Cl)cn2)c1C(=O)Nc1ccc(F)c(F)c1 too.
Outgoing: 0.26

Incoming: Now give it for Cc1nsc(Nc2ccn3nccc3n2)c1C(=O)Nc1ccc(F)c(F)c1 too.
Outgoing: 2.9

Incoming: Now give it for COc1cncc(Nc2snc(C)c2C(=O)Nc2ccc(F)c(F)c2)n1 too.
Outgoing: 1.7

Incoming: Now give it for CCc1ccccc1NC(=O)c1c(C)nsc1Nc1nc2ccccc2s1 too.
Outgoing: 1

Incoming: Now give it for CCc1ccccc1NC(=O)c1c(C)nsc1Nc1cnc2cc(Cl)ccc2n1 too.
Outgoing: 1

Incoming: Now give it for Cc1nsc(Nc2cncc(C(=O)N3CCOCC3)n2)c1C(=O)Nc1ccc(F)c(F)c1 too.
Outgoing: 4.9

Incoming: Now give it for Cc1nsc(Nc2cnc(C(F)(F)F)cn2)c1C(=O)Nc1ccc(F)c(F)c1 too.
Outgoing: 0.38

Incoming: Now give it for Cc1nsc(Nc2cncc(C(=O)N3CCCC3)n2)c1C(=O)Nc1ccc(F)c(F)c1 too.
Outgoing: 3.7

Incoming: Now give it for Cc1nsc(Nc2cnc3cc(C(F)(F)F)ccc3n2)c1C(=O)Nc1ccc(Cl)c(Cl)c1 too.
Outgoing: 7.7

Incoming: Now give it for CCc1ccccc1NC(=O)c1c(C)nsc1Nc1nc(C(=O)OC)co1 too.
Outgoing: 9.7

====

system: spindle assembly checkpoint; experiment: SAC-Formation - Nocodazole-Induced Assay; assay type: cell-based; details: Homo sapiens; HeLa cells, nocodazole 0.1 μg/ml, 24 h, phosphorylated histone H3 on serine 10
pIC50: −log10 of the molar value.
Classes (pIC50): small value: < 6; mid value: ≥ 6 and < 7; large value: ≥ 7

Would you please look over these solved cases?
| INPUT_SMILES | TEST_SYSTEM | LABEL_CLASS |
| --- | --- | --- |
| Cc1nsc(Nc2cc(C#N)ccn2)c1C(=O)Nc1ccc(Cl)c(F)c1 | spindle assembly checkpoint | large value |
| CCc1ccccc1NC(=O)c1c(C)nsc1Nc1ncccc1C#N | spindle assembly checkpoint | small value |
| Cc1nsc(Nc2cncc(-c3ncco3)n2)c1C(=O)Nc1ccc(Cl)c(F)c1 | spindle assembly checkpoint | mid value |

Attention now shifts to the item below.
Incoming: Band of Cc1nsc(Nc2nc3c(C(F)(F)F)cccc3s2)c1C(=O)Nc1ccc(F)c(F)c1 ?
Outgoing: large value

====

Items are presented alongside their recorded IC50.
system: spindle assembly checkpoint; experiment: SAC-Formation - Paclitaxel-Induced Assay; assay type: cell-based; conditions: Homo sapiens; HeLa cells, paclitaxel 0.05 μM, 24 h, phosphorylated histone H3 on serine 10
Quick note: give the figure in nM, leave out the unit.

Past entries and their recorded results:
| MOLECULE | UOM | IC50 |
| --- | --- | --- |
| CNC(=O)c1ccnc(Nc2snc(C)c2C(=O)Nc2ccc(F)c(F)c2)c1 [Example 108] | nM | 20000 |
| Cc1nsc(Nc2cnc3cc(F)ccc3n2)c1C(=O)Nc1ccc(F)c(F)c1 [Example 46] | nM | 34 |
| CCc1ccccc1NC(=O)c1c(C)nsc1Nc1nc2ccccc2nc1C [Example 21] | nM | 3600 |
| CCOC(=O)c1coc(Nc2snc(C)c2C(=O)Nc2ccc(F)c(F)c2)n1 [Example 98] | nM | 7900 |
| Cc1nsc(Nc2cncc(N(C)C)n2)c1C(=O)Nc1ccc(F)c(F)c1 [Example 105] | nM | 20000 |
| CCc1ccccc1NC(=O)c1c(C)nsc1Nc1nc(C)nc2ccccc12 [Example 35] | nM | 4600 |
| CCc1ccccc1NC(=O)c1c(C)nsc1Nc1nc(C(=O)OC)co1 [Example 91] | nM | 1400 |
| COc1ccc(NC(=O)c2c(C)nsc2Nc2nc3ccc(F)cc3s2)cn1 [Example 88] | nM | 1100 |

Incoming: What value of IC50 on spindle assembly checkpoint does CCOC(=O)c1coc(Nc2snc(C)c2C(=O)Nc2ccc(OC)nc2)n1 [Example 100] have?
Outgoing: 3400

Incoming: Now give it for Cc1nsc(Nc2cnc(Br)cn2)c1C(=O)Nc1ccc(F)c(F)c1 [Example 77] too.
Outgoing: 8.3

Incoming: Now give it for CCc1ccccc1NC(=O)c1c(C)nsc1Nc1ncnc2sccc12 [Example 12] too.
Outgoing: 6900

Incoming: Now give it for COc1ncc(NC(=O)c2c(C)nsc2Nc2ccc(C#N)cn2)cc1C [Example 120] too.
Outgoing: 1200

Incoming: Now give it for COc1ccc(NC(=O)c2c(C)nsc2Nc2cnc3ccccc3n2)cn1 [Example 94] too.
Outgoing: 5600

Incoming: Now give it for COc1ncc(NC(=O)c2c(C)nsc2Nc2cnc3ccccc3n2)cc1C [Example 121] too.
Outgoing: 750

Incoming: Now give it for Cc1nsc(Nc2cc(C#N)ccn2)c1C(=O)Nc1ccc(Oc2ccc(F)cc2F)nc1 [Example 114] too.
Outgoing: 120

Incoming: Now give it for Cc1nsc(Nc2ccc(C(F)(F)F)nn2)c1C(=O)Nc1ccc(F)c(F)c1 [Example 83] too.
Outgoing: 9.3

Incoming: Now give it for CCc1ccccc1NC(=O)c1c(C)nsc1Nc1nc2ccccc2o1 [Example 11] too.
Outgoing: 2900

Incoming: Now give it for COC(=O)c1cncc(Nc2snc(C)c2C(=O)Nc2ccc(OC)nc2)n1 [Example 101] too.
Outgoing: 1500
